Numbers sourced from patent US20170029355A1.

# PROTOCOL DETAILS: In vitro photo-release and hydrolytic release of dicamba in an aqueous medium (Example 36)
# Assay type: physicochemical
# ASSAY SETUP: 0.01 mM (0.005 mM for diesters), amber (dark) bottle, Day 14
Threshold-based label: Conversion to Dicamba, Dark, Day 14 under 70% gives 1, Conversion to Dicamba, Dark, Day 14 not under 70% gives 0.

[[record]]
compound = "C=C(C(=O)OCC)C(OC(=O)c1c(Cl)ccc(Cl)c1OC)c1ccccc1[N+](=O)[O-] (stereo not shown) [Ester 31a]"
class = 1

[[record]]
compound = "COc1c(Cl)ccc(Cl)c1C(=O)Oc1ccc(OC(=O)c2c(Cl)ccc(Cl)c2OC)nn1 [Ester 17, Maleic Hydrazide Diester of Dicamba]"
class = 1

[[record]]
compound = "COc1c(Cl)ccc(Cl)c1C(=O)Oc1ccc(=O)n(CCC#N)n1 [Ester 34a]"
class = 1

[[record]]
compound = "COc1ccc(COC(=O)c2c(Cl)ccc(Cl)c2OC)cc1 [Ester 29a, 4-methoxybenzyl ester of dicamba]"
class = 0

[[record]]
compound = "COc1c(Cl)ccc(Cl)c1C(=O)Oc1ccccn1 [Ester 14, 2-Hydroxypyridine Ester of Dicamba]"
class = 0

[[record]]
compound = "COc1c(Cl)ccc(Cl)c1C(=O)Oc1ccc(=O)n(CCC=O)n1 [Ester 33a]"
class = 1


---

# PROTOCOL DETAILS: In vitro photo-release and hydrolytic release of dicamba in an aqueous medium (Example 36)
# Format: physicochemical
# ASSAY SETUP: 0.01 mM (0.005 mM for diesters), amber (dark) bottle, Day 7
Threshold-based label: Conversion to Dicamba, Dark, Day 7 under 70% gives 1.0, Conversion to Dicamba, Dark, Day 7 not under 70% gives 0.0.

[[record]]
compound = "C=C(C(=O)OCC)C(OC(=O)c1c(Cl)ccc(Cl)c1OC)c1ccccc1[N+](=O)[O-] (centres unmarked) [Ester 31a]"
class = 1.0

[[record]]
compound = "COc1ccc(COC(=O)c2c(Cl)ccc(Cl)c2OC)cc1 [Ester 29a, 4-methoxybenzyl ester of dicamba]"
class = 0.0

[[record]]
compound = "COc1c(Cl)ccc(Cl)c1C(=O)Oc1ccc(=O)n(CCC#N)n1 [Ester 34a]"
class = 1.0

[[record]]
compound = "COc1c(Cl)ccc(Cl)c1C(=O)Oc1nc(C(C)(C)C)cc(C(C)(C)C)c1C#N [Ester 36a]"
class = 1.0

[[record]]
compound = "COc1c(Cl)ccc(Cl)c1C(=O)Oc1ccc(=O)n(CCC=O)n1 [Ester 33a]"
class = 1.0

[[record]]
compound = "COc1c(Cl)ccc(Cl)c1C(=O)Oc1ccccn1 [Ester 14, 2-Hydroxypyridine Ester of Dicamba]"
class = 0.0

[[record]]
compound = "COc1c(Cl)ccc(Cl)c1C(=O)Oc1ccc(OC(=O)c2c(Cl)ccc(Cl)c2OC)nn1 [Ester 17, Maleic Hydrazide Diester of Dicamba]"
class = 1.0

[[record]]
compound = "CCOC(=O)CCn1nc(OC(=O)c2c(Cl)ccc(Cl)c2OC)ccc1=O [Ester 35a]"
class = 0.0


---

The entries below are paired with their reported Conversion to Dicamba, Light, Day 0.
# PROTOCOL DETAILS: In vitro photo-release and hydrolytic release of dicamba in an aqueous medium (Example 36)
# Type: physicochemical
# ASSAY SETUP: 0.01 mM (0.005 mM for diesters), quartz tube, Day 0
RESULT TYPE: Conversion to Dicamba, Light, Day 0 (%)

[[record]]
compound = "CCOC(=O)CCn1nc(OC(=O)c2c(Cl)ccc(Cl)c2OC)ccc1=O [Ester 35a]"
test_result = 19

[[record]]
compound = "COc1c(Cl)ccc(Cl)c1C(=O)Oc1ccc(OC(=O)c2c(Cl)ccc(Cl)c2OC)nn1 [Ester 17, Maleic Hydrazide Diester of Dicamba]"
test_result = 6

[[record]]
compound = "COc1c(Cl)ccc(Cl)c1C(=O)Oc1ccccn1 [Ester 14, 2-Hydroxypyridine Ester of Dicamba]"
test_result = 2

[[record]]
compound = "C=C(C(=O)OCC)C(OC(=O)c1c(Cl)ccc(Cl)c1OC)c1ccccc1[N+](=O)[O-] (stereo not shown) [Ester 31a]"
test_result = 16

